Origin of the recorded values: ChEMBL document CHEMBL3352217

Overview of reported IC50 across a group of molecules:
- protocol.description: Inhibition of Pseudomonas aeruginosa PAO1 PchB expressed in Escherichia coli BL21(DE3) using isochorismate as substrate assessed as pyruvate production after 10 mins by microplate reader analysis
Quick reminder: number only, in nM, skip the unit.

| chemical.string | readout.kind | assay.value |
| --- | --- | --- |
| O=C(O)c1cc(S(=O)(=O)Nc2ccccc2C(=O)O)ccc1Br | IC50 | 94 |

What does the data say about its IC50? Entry: O=C(O)c1cccc(S(=O)(=O)Nc2ccccc2C(=O)O)c1
220

What does the data say about its IC50? Entry: COC(=O)Oc1c(Cl)cc2oc(=O)sc2c1[N+](=O)[O-]
1800

What does the data say about its IC50? Entry: COC(=O)Oc1c([N+](=O)[O-])cc2oc(=O)sc2c1[N+](=O)[O-]
530

What does the data say about its IC50? Entry: O=C1S/C(=C/c2cc([N+](=O)[O-])cc([N+](=O)[O-])c2O)C(=O)N1c1ccccc1
1400

What does the data say about its IC50? Entry: O=c1oc2cc(Br)c(O)c(Br)c2s1
10000
